biological target: Estrogen receptor (Homo sapiens) (UniProt P03372); assay: qHTS assay to identify small molecule agonists of the estrogen receptor alpha (ER-alpha) signaling pathway (AID 743075); conditions: HEK293 ER-alpha-UAS-bla, beta-lactamase FRET ratio, 18 h; series mostly up to 70.1 µM;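 also: HEK293 GripTite cells with ER-alpha and UAS-driven beta-lactamase reporter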
Sequence (P03372 whole entry, looked up): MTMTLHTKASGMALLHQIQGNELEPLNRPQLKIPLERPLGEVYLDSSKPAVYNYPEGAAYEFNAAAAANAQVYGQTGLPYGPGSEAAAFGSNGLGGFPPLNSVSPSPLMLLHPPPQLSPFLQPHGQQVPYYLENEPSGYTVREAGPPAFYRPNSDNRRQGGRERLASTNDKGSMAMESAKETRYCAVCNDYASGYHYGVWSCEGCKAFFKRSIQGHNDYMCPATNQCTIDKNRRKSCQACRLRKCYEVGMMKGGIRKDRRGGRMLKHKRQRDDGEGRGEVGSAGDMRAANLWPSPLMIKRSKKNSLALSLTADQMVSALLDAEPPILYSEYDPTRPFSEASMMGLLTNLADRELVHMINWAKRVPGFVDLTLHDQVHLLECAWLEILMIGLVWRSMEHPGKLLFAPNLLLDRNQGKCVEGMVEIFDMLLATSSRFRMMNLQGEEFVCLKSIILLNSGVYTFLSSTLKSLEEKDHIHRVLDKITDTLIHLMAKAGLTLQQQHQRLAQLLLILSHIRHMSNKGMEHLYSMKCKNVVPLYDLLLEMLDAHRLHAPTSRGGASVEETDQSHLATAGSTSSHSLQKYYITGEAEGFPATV
The source made the active and inactive calls. Calls follow the shape of the full dose curve.
Valid outcomes are listed here; reply with one: active, inactive

- N=C(N=C(N)N)N1CCOCC1: inactive
- CC(=O)O[C@H]1C[C@@H]2CC[C@@H]3[C@H](CC[C@@]4(C)[C@H]3C[C@H]([N+]3(C)CCCCC3)[C@@H]4OC(C)=O)[C@@]2(C)C[C@@H]1N1CCCCC1: inactive
- OC(CCN1CCCCC1)(c1ccccc1)C1CCCCC1 (stereo not given): inactive
- CCN(CC)CCOC(=O)C1(c2ccccc2)CCCC1: inactive
- O=C(c1ccc(O)cc1)c1ccc(O)cc1: active

Next up:
Short answer needed: outcome of this test for "CC(=O)O[C@@H]1C(=O)O[C@@H]2[C@H]1OC(=O)[C@@H]2OC(C)=O" ?
inactive
